Ref: PubChem BioAssay (NCI)

# measurement.description: NCI Yeast Anticancer Drug Screen. Data for the sgs1 mgt1 strain (AID 161);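 further: 0% = growth of cultures given vehicle only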
# condition.set: S. cerevisiae sgs1 mgt1 strain, at 50.0 µM
Compounds without any hit were thinned out: in the full panel of roughly 79,000, 15% have a hit. Active and inactive are the calls of the source. No stated cut-off is given here; in the data, active means growth inhibition above about 70%; inactive means the rest.
Result category, one only: 1 (yes) (active), 0 (no) (inactive)

**Q:** Answer briefly: the call reported for CCC(Cl)COP(=O)(OCC(Cl)CC)C(CC)OP(=S)(OCC(Cl)CC)OCC(Cl)CC (stereo unspecified) in this assay.
**A:** 0 (no)

More entries:
**Q:** Answer briefly: the call reported for CCP(=S)(CC)P(=S)(CC)CC in this assay.
**A:** 0 (no)

**Q:** Answer briefly: the call reported for NC(Cc1ccc(O)c(F)c1)C(=O)O (stereo unspecified) in this assay.
**A:** 0 (no)

**Q:** Answer briefly: the call reported for [CH3][Sb]1([Br])[CH2]CC[CH2]1 in this assay.
**A:** 0 (no)

**Q:** Answer briefly: the call reported for COc1ccc(C2=CCN(c3ccc(C)cc3)P(=O)(N(CCCl)CCCl)O2)cc1 (stereo unspecified) in this assay.
**A:** 0 (no)

**Q:** Answer briefly: the call reported for Nc1nc(CC(N)C(=O)O)c[se]1 (stereo unspecified) in this assay.
**A:** 0 (no)

**Q:** Answer briefly: the call reported for O=P(Nc1ccc2ccccc2c1)(Nc1ccc2ccccc2c1)N(CCCl)CCCl in this assay.
**A:** 0 (no)

**Q:** Answer briefly: the call reported for S=P12OCCC(CO1)O2 (stereo unspecified) in this assay.
**A:** 0 (no)

**Q:** Answer briefly: the call reported for CC(C)(C)c1ccc2c(cc[n+]3ccccc23)c1 in this assay.
**A:** 0 (no)

**Q:** Answer briefly: the call reported for CN1CCC(O)(c2ccc(Br)cc2)C(C(=O)c2ccc(Br)cc2)C1 (stereo unspecified) in this assay.
**A:** 1 (yes)

**Q:** Answer briefly: the call reported for O=C(Nc1ccc(S(=O)(=O)F)cc1)/C(=C\c1ccc([N+](=O)[O-])cc1)c1cccc(Cl)c1 in this assay.
**A:** 0 (no)

**Q:** Answer briefly: the call reported for O=[N+]([O-])c1cc(Br)c(O)c(Br)c1 in this assay.
**A:** 0 (no)

**Q:** Answer briefly: the call reported for COc1cccc(N2CCNCC2)c1 in this assay.
**A:** 0 (no)

**Q:** Answer briefly: the call reported for CCCC(=O)[O-].CCCC(=O)[O-].NCCN.NCCN.[Co+3].[O-][Cl+3]([O-])([O-])[O-] in this assay.
**A:** 0 (no)

**Q:** Answer briefly: the call reported for CCC1(CCC(C)C)C(=O)NC(=O)N(c2ccccc2)C1=O (stereo unspecified) in this assay.
**A:** 0 (no)

**Q:** Answer briefly: the call reported for C[N+](C)([O-])CCNC(=O)c1cc(N(CCCl)CCCl)c([N+](=O)[O-])cc1[N+](=O)[O-] in this assay.
**A:** 0 (no)

**Q:** Answer briefly: the call reported for O=CNc1ccccc1 in this assay.
**A:** 0 (no)

**Q:** Answer briefly: the call reported for Cc1cccc(NC(N)=S)c1 in this assay.
**A:** 0 (no)

**Q:** Answer briefly: the call reported for O=c1sc2ccccc2n1CC1CS1 (stereo unspecified) in this assay.
**A:** 0 (no)

**Q:** Answer briefly: the call reported for CC(Cl)CNC1c2ccccc2CC1O (stereo unspecified) in this assay.
**A:** 0 (no)

**Q:** Answer briefly: the call reported for S=C(SP(SC(=S)N1CCCCC1)SC(=S)N1CCCCC1)N1CCCCC1 in this assay.
**A:** 0 (no)

**Q:** Answer briefly: the call reported for CCN(CC)P(=O)(N1CC1(C)C)N1CC1(C)C (stereo unspecified) in this assay.
**A:** 0 (no)
